Molecular target: T1, human TIGIT ECD with C-terminal polyhistidine tag (human, UniProt Q495A1 22-141)
T1 construct: in-house or Sino Biological; also called hTIGIT-HIS; human TIGIT-HIS
T1 sequence: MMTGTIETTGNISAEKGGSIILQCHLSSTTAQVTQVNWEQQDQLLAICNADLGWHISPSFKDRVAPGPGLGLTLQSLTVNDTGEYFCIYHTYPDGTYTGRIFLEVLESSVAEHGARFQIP
Assay: SPR (ProteOn), mAb captured, human TIGIT injected
OBSERVABLE: Kd

Measured Kd, CPA.9.049 hIgG4 (antibody, V domains shown, phage-derived anti-TIGIT, human IgG4; also called CPA.9.049-H4) VH: EVQLVETGGGLIQPGRSLRLSCAASGFTFSSYAMHWVRQAPGKGLEWVAVISYDGSNKYYADSVKGRFTISRDNSKNTLYLQMNSLRAEDTAVYYCARDPLPLHYYGMDVWGQGTTVTVSS VL: QSALTQPRSASGNPGQRVTISCSGSSSNMGRRPVNWYQQIPGTAPKLLIYSQNQRPSGVPDRFSGSQSGTSASLTISGLQSEDEAEYFCAVWDDSLFSLLLGGGTQLAVLG : 0.0945 nM
